# ASSAY NOTES: TLR3 IRF3 reporter activation blockers – cell-based, poly I:C stimulus, luciferase, 10K MLSCN set, primary screen (AID 602277)
# RECORDED CONDITIONS: HEK293-TLR3 RL24 IRF3 luciferase reporter, at 10 µM, stronger effect = higher value
Classification field: enter criterion met for inhibition values not below 20%, criterion not met for values below it.

* Cc1nc2ccccc2c2oc(C(=O)NCC3COc4ccccc4O3)cc12 (stereo unspecified) | criterion not met
* Cc1occc1-c1nnc(SCC(=O)c2ccc(F)cc2)n1Cc1ccco1 | criterion not met
* CC(NS(=O)(=O)c1ccccc1)C(c1cccs1)N1CCN(C)CC1 (stereo unspecified) | criterion met
* COCCN(Cc1cc2cccc(C)c2[nH]c1=O)C(=O)c1ccccc1 | criterion not met
* O=C(NCC(=O)N(Cc1cccs1)C(C(=O)NC1CCCC1)c1ccncc1)c1ccco1 (stereo unspecified) | criterion not met
* COc1cccc(N2CCN(CC(=O)Nc3nnc(-c4ccccc4)s3)CC2)c1 | criterion met
* O=C(C1CC1)N1CCC(c2nc(-c3ccc(S(=O)(=O)NCC4CCCO4)cc3)no2)CC1 (stereo unspecified) | criterion not met
* S=c1[nH]nc(-c2ccco2)n1-c1cccc2ccccc12 | criterion not met
* COc1ccccc1OCC(=O)Nc1cccc(-c2nc3ccccc3o2)c1 | criterion not met
* CC(=O)Nc1ccc(NC(=O)Cn2cc3c(n2)CCC(C)C3)cc1 (stereo unspecified) | criterion met
* CCOC(=O)C1=C(C)OC(N)=C(C#N)C1c1ccoc1 (stereo unspecified) | criterion met

====

As shown below, each of these compounds has a reported inhibition of aggregation value.
# ASSAY NOTES: reduction of polyQ htt aggregates in cells – imaging, exon1htt(103Q)mCFP cells, high-content imaging, primary screen (AID 483);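 also: compound exposure lasted 3 days before fixation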
# RECORDED CONDITIONS: exon1htt(103Q)mCFP cell line, aggregate imaging, at 2 µM; stronger effect = higher value
Active and inactive are the calls of the source.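 How the source made its calls: active means visual image review flags a hit and inhibition of aggregation exceeds 20%; inconclusive means visual hit but inhibition at or below 20%; inactive means no hit on visual image review.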
PROPERTY MEASURED: inhibition of aggregation

- CCCC1(C(=O)OC)NC(c2cc(OC)c(OC)c(OC)c2)C2C(=O)N(CC)C(=O)C21 (stereo not drawn): 8.1% (inactive)
- O=C(NCC1COc2ccccc2O1)c1ccccc1 (stereo not drawn): -0.5% (inactive)
- O=C(CCn1c(=O)oc2ccccc21)N1CCN(c2ccccc2Cl)CC1: -52.3% (inactive)
- Cc1ccc(-c2cc(C(F)(F)F)n3nc(C(=O)N4CCCC4)cc3n2)cc1: 13.3% (inactive)
- Cc1ccc2oc(=O)c3cnn(CC(=O)NCCC(C)C)c3c2c1: -7.6% (inactive)
- COc1ccc(CCn2c(NCCCN3CCOCC3)nc3c2c(=O)[nH]c(=O)n3C)cc1: -5.3% (inactive)
- COc1cccc(N(C(C)=O)c2nc(C)cc(C)c2C#N)c1: -28.3% (inactive)
- Cc1cccc(C)c1NC(=O)CS(=O)CC(=O)NC1CCCc2ccccc21 (stereo not drawn): -3.7% (inactive)
- FC(F)(F)c1cc(-c2ccco2)nc(N2CCOCC2)n1: -15% (inactive)
- O=C(Nc1ccc(N2CCCC2)cc1)c1cccc(F)c1: 24.1% (inactive)
- Cc1ccc(-n2nc(C)c3cc(C(=O)O)sc32)cc1: 11.1% (inactive)
- Cc1cnc(SCCc2ccncc2)nc1C: -22.1% (inactive)
- O=C(O)c1ccc(COc2ccc(Cl)cc2)o1: 10.6% (inactive)
- COc1ccc(CCN2CC(O)=C(c3nc4ccccc4c(=O)[nH]3)C2=N)cc1OC: -7.4% (inactive)
- CC1CCN(S(=O)(=O)c2ccc3[nH]cc(C(=O)NCCN4CCOCC4)c(=O)c3c2)CC1: -11.2% (inactive)
- CCC1CCc2c(sc3ncnc(N4CCOCC4)c23)C1 (stereo not drawn): -3.1% (inactive)
- C/C(N)=C(/C#N)C(=O)COC(=O)c1cc(C)n(-c2ccc(F)cc2)c1C: 2.4% (inactive)
- O=C(Nc1nnc(CCN2CCCCC2)s1)C1CCCCC1: 7% (inactive)
- O=C(NC12CC3CC(CC(C3)C1)C2)c1cncc(O)c1: -6.2% (inactive)
- Cc1cccc(C(OC(=O)c2ccco2)C(=O)NCc2ccccc2)n1 (stereo not drawn): -7.2% (inactive)
- COc1nnc(-c2ccc(C)c(S(=O)(=O)NCCO)c2)c2ccccc12: 11.7% (inactive)
- COc1ccc(-n2ncc3c(N4CCC(C)CC4)ncnc32)cc1: 17.5% (inactive)
- Nn1c(SCC(=O)Nc2ccc(Oc3ccccc3)cc2)nnc1C1CC1: 17.5% (inactive)

====

# TEST SYSTEM: Alpha-2C adrenergic receptor (Homo sapiens)
# ASSAY NOTES: compounds altering alpha2C-coupled GIRK flux – cell-based, HEK293 alpha2C/GIRK1/2, thallium flux, primary screen (AID 624);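 also: slope of fluorescence ratio to pre-addition baseline per second over 15 to 24 s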
# RECORDED CONDITIONS: thallium flux BTC fluorescence, at 10 µM, actives lie on both sides
PROPERTY MEASURED: slope

- CN(CCCNC(=O)c1cn(C)c2ccc(S(=O)(=O)N(C)C)cc2c1=O)c1ccccc1: 0.00499
- CCCCOc1ccc(C2C3CN(C(=O)OCC)CC=C3C(C#N)=C(N)C2(C#N)C#N)cc1OC (stereo not given): 0.0065
- COc1ccc(-n2c(SCC#N)nc3ccccc3c2=O)cc1: 0.00655
- O=C(NCc1ccc2c(c1)OCO2)C1CCCN(S(=O)(=O)c2cccnc2)C1 (stereo not given): 0.00636
- CNC(=O)C1C2C=CC3(O2)C1C(=O)N(C1CC1)C3C(=O)NCc1ccc(OC)cc1 (stereo not given): 0.00639

====

# TEST SYSTEM: Alpha-2C adrenergic receptor (Homo sapiens) (UniProt P18825)
# Sequence (P18825 whole entry, looked up): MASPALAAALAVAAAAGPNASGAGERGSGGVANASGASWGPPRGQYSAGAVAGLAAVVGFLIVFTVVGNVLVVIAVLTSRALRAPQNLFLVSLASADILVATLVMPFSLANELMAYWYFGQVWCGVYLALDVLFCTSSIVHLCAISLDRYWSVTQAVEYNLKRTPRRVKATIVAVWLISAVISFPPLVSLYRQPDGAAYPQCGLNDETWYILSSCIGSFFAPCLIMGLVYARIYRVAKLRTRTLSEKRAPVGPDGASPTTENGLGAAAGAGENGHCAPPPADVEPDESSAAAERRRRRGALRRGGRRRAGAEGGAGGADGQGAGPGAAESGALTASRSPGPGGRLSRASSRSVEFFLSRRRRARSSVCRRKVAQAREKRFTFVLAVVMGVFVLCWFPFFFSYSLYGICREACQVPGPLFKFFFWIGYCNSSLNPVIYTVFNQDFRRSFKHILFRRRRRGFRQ
# ASSAY NOTES: compounds altering alpha2C-coupled GIRK flux – cell-based, HEK293 alpha2C/GIRK1/2, thallium flux, primary screen (AID 624);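 also: slope of fluorescence ratio to pre-addition baseline per second over 15 to 24 s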
# RECORDED CONDITIONS: thallium flux BTC fluorescence, at 10 µM, actives lie on both sides
Lab note: cut-off is 0.006. Strictly less in slope is Condition met. Exactly 0.006 or more is Condition not met.

* Clc1cccc(-c2nnc3sc(-c4ccccc4)nn23)c1 | Condition not met
* C=CCn1c(SC(C)C(=O)NC2(C#N)CCCCC2)nnc1-c1ccc(OC)cc1 (stereo not given) | Condition met
* O=C(NCC(c1cccnc1)N1CCOCC1)c1ccco1 (stereo not given) | Condition met
* Cc1cccc(N2CCN(C(=O)Cn3nc(Cc4ccncc4)c4ccccc4c3=O)CC2)c1C | Condition met
* CC1CCN(c2c(NCc3ccc(C(=O)N4c5ccccc5CC4C)cc3)c(=O)c2=O)CC1 (stereo not given) | Condition not met
* CCOC(=O)Cn1c(=N)n(CCOc2cccc(C)c2)c2ccccc21 | Condition not met
* Cc1cc(C)n(-c2cc(N3CCOCC3)nc(-c3ccccc3)n2)n1 | Condition met
* COc1ccc(NC(=O)c2cc(C(C)C)on2)c(OC)c1 | Condition not met

====

# TEST SYSTEM: Voltage-gated potassium channel subunit beta-2 (Rattus norvegicus) (UniProt P62483)
# Sequence (P62483 whole entry, looked up): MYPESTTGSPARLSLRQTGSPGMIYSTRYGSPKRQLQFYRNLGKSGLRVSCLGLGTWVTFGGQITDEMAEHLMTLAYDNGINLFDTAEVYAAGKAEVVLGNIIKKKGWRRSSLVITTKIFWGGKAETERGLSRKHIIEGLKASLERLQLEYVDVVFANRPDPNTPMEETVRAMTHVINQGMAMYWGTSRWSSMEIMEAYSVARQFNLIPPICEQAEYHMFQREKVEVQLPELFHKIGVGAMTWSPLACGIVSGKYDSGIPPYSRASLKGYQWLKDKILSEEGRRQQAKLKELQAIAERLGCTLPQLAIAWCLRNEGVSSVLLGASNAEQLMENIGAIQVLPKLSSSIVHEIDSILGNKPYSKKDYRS
# ASSAY NOTES: enhancers of rat Kvbeta2 NADPH turnover – biochemical, NADPH fluorescence, primary screen (AID 623);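 also: fluorescence intensity change per second fitted from 20 to 320 s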
# RECORDED CONDITIONS: Recombinant KvBeta, NADPH fluorescence decrease slope, 10 min; at 10 µM; stronger effect = lower value
PROPERTY MEASURED: NADPH fluorescence slope

* Cc1ccc(C)c(/C(O)=C2\C(=O)C(=O)N(CCCN3CCOCC3)C2c2cccnc2)c1 (stereo unspecified) | -2.4e-06
* Cc1ccc(N(C(C)C(=O)Nc2ccc(S(=O)(=O)N3CCOCC3)cc2)S(C)(=O)=O)cc1 (stereo unspecified) | -1.3e-05
* CCOC(=O)c1c(NC(=O)Cn2c(=O)oc3ccccc32)oc(C)c1C(C)=O | 1.5e-05
* O=S(=O)(Nc1ccc(Cc2ccncc2)cc1)N1CCCC1 | 1.2e-05
* COc1ccc(OCCC(=O)NCc2ccccc2)cc1 | 9e-06
* CC1(C)Cc2cccc(OCC(=O)O)c2O1 | -2.7e-05
* CC(C)c1ccc(-c2nc(N3CCOCC3)[nH]c(=O)c2C#N)cc1 | -2e-05
* COCCOC(=O)C1=C(C)NC(=O)CC1c1cc2c(cc1Br)OCO2 (stereo unspecified) | -2.8e-05
* COc1ccc(NC(=O)Nc2ccc(C)cc2OC(F)F)cc1OC | -5.1e-05
* COc1ccc(C(c2nnnn2C2CCCC2)N2CCN(C3CCCC3)CC2)cc1OC (stereo unspecified) | -0.000149
* COC(=O)C1=C(C)NC2=C(C(=O)CCC2)C1c1coc2ccccc2c1=O (stereo unspecified) | 7.1e-06

====

As shown below, each of these molecules has a reported nuclei count value.
# ASSAY NOTES: reduction of polyQ htt aggregates in cells – imaging, exon1htt(103Q)mCFP cells, high-content imaging, primary screen (AID 483);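 also: compound exposure lasted 3 days before fixation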;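 as to nuclei count: percent of the per-plate median nuclei count of sample wells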
# RECORDED CONDITIONS: exon1htt(103Q)mCFP cell line, aggregate imaging, at 2 µM; measured here: cell count, toxicity
Where a SMILES comes first, the peptide text is derived from it.
PROPERTY MEASURED: nuclei count (%)

* O=C(Nc1ccc2c(c1)OCO2)c1ccc(CN2CCOCC2)cc1 | 110
* Cc1nc(SCC(=O)Nc2cc(C)on2)c2c3c(sc2n1)CCCC3 | 93.7
* O=C(c1cccc(C(=O)N2CCN(c3ccccc3)CC2)c1)N1CCN(c2ccccc2)CC1 | 98.6
* O=C(c1ccco1)N1CCN(C(=O)c2cc3c(s2)-c2ccccc2OC3)CC1 | 131
* Cn1c(-c2cc(Br)ccc2O)n[nH]c1=S | 109
* CCOc1ccccc1CNC(=O)CCN1C(=O)COc2ccccc21 | 47.7
* Cc1ccccc1OCCn1c(=O)oc2ccccc21 | 144
* COc1ccc(NC(=O)CSc2nc3c(c(=O)n2-c2ccc(F)cc2)SCC3)cc1 | 53.8
* CCN(CC)c1ccc(/C=N/n2nnnc2N)c(O)c1 | 101
* COc1cc(C(=O)OC(C)CN2CCCC2)cc(OC)c1OC (stereo not given) | 101
* C=CCSc1nc(N)c(C(=O)Nc2ccccc2C)cc1C(N)=O | 96.4
* CC(=O)c1ccc(OCC(O)CN2CC(C)OC(C)C2)cc1 (stereo not given) | 92.4
* CCOC(=O)c1ccc(NC(=O)CCc2c(C)nc3ncnn3c2C)cc1 | 107
* CN(Cc1ccccc1)C(=O)c1ccccc1NC(=O)c1ccco1 | 86
* Cc1ccc(N2CCN(C(=O)c3ccccc3)CC2)c(C)c1 | 100
* O=C(c1ccco1)N1CCN(S(=O)(=O)c2ccc(Oc3ccccc3)cc2)CC1 | 77.4
* O=C(Oc1ccccc1)c1cccc(COC(=O)c2cnccn2)c1 | 103
* CCCC(NC(=O)CNC(=O)C(C)(C)C)C(=O)O (stereo not given) (HELM PEPTIDE1{[CC(C)(C)C(=O)[*:2]].G.[CCCC(N[*:1])C(=O)O]}$$$$V2.0) | 104
* CN1CCN(CCCNC(=O)Cn2ncc3c4ccccc4n(C)c3c2=O)CC1 | 98
* Cc1ccc(O)c(-c2cc3ccccc3[nH]2)c1 | 98.8
* COCCNC(=O)CC(NS(=O)(=O)c1ccc(NC(C)=O)cc1)C(C)C (stereo not given) | 105
* O=C(C1CCCO1)N1CCN(Cc2nc3ccccc3c(=O)[nH]2)CC1 (stereo not given) | 125
* COc1cccc(-c2nc(CS(=O)(=O)CC(=O)Nc3cc(C)ccc3C)c(C)o2)c1 | 59.5
* CCOc1ccc(-n2cc(C(=O)N3CCN(C)CC3)c3cc(OC)c(OC)cc3c2=O)cc1 | 99.4
* CCc1nc(SCc2cc(Cl)ccc2OC)n[nH]1 | 95.5
* Cc1csc2ncc(C(=O)Nc3ccccc3Cl)c(=O)n12 | 95.1
* CC(OC(=O)C1CC=CCC1C(N)=O)C(Cl)=C(Cl)Cl (stereo not given) | 108
* CCOC(=O)C1CCN(S(=O)(=O)c2cccc(-c3csc(C)n3)c2)CC1 | 97.1
* CC(=O)CCc1c(C)[nH]c2ccccc2c1=O | 123
* COc1cccc(N2CCN(Cc3nc(N)nc(Nc4ccccc4)n3)CC2)c1 | 84.7
* CC(=O)NS(=O)(=O)c1ccc(NC(=O)c2ccccc2F)cc1 | 90.4
* Cc1nc2ccc(CCO)cc2s1 | 93.2
* Cc1ccc2oc(C(=O)Nc3c(C)n(C)n(-c4ccccc4)c3=O)c(C)c2c1 | 109
* Cc1ncc(CSc2nc3ccccc3[nH]2)c(N)n1 | 115
* COCCn1c(SCC(=O)Nc2ccc3c(c2)OCCO3)nc2c(c1=O)SC(C)C2 (stereo not given) | 106
* CC(Sc1nc(-c2ccccc2)cc(C(F)(F)F)n1)C(=O)N1CCC(C(N)=O)CC1 (stereo not given) | 97.1
* COc1cccc2cc(C(=O)OC3CCN(C)CC3)c(=O)oc12 | 77.9
* CC(=O)N1CCN(c2ccc(N=Cc3c(O)n(Cc4ccccc4)c(=O)[nH]c3=O)cc2)CC1 | 102
* c1ccc2oc(SCc3cn4ccccc4n3)nc2c1 | 99.8
* Cn1cccc1Cc1nnc(SCC(=O)N2CCOCC2)n1-c1ccc(F)cc1 | 89.6
* Cc1cc(C)cc(-n2nnc(C(=O)NCc3ccco3)c2N)c1 | 119
* CC1CCC(NC(=O)Cn2ncc3ccccc32)CC1 (stereo not given) | 118
* O=C(O)c1ccc2c3c(ncnc13)-c1ccccc1C2=O | 9.6
* O=C(COc1ccc(S(=O)(=O)NC2CCCCC2)cc1Cl)NCC1CCCO1 (stereo not given) | 124
* CCOc1ccc(S(=O)(=O)N2CCN(c3ccc(C)cc3C)CC2)cc1 | 98.4
